These data points were gathered from PubChem BioAssay AID574.

biological target: 5-hydroxytryptamine receptor 1E (Homo sapiens) (UniProt P28566); assay: 5-HT1E receptor agonists, primary screen, cell-based, HTS (AID 574); details: CHO 5-HT1E Ga15 NFAT-bla reporter, FRET; at 6 µM; stronger effect = higher value; 0% DMSO wells, 100% control agonist wells;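 also: 100% = positive control agonist at 1 µM giving full maximal response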
Sequence (P28566 whole entry, looked up): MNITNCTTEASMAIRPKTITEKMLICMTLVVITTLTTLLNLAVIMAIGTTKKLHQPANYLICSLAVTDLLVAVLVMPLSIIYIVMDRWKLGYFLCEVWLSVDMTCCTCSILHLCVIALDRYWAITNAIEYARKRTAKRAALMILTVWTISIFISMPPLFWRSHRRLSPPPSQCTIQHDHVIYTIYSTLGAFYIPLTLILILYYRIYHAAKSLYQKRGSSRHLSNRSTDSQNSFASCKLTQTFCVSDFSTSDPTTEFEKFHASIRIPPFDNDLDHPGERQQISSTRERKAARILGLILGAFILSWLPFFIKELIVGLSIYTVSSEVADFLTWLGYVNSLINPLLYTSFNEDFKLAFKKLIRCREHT
Among all 65,000 compounds or so, about 450 (0.69%) were called active. For the sample, actives were picked, then their nearest neighbours and some compounds at random.
measureName: activation (%)
Just the number in %, nothing appended.

Task: Query: activation; subject: Cc1ccc(-c2cc(C(F)(F)F)n3nc(C(=O)N4CCCC4)cc3n2)cc1
Result: 0.8

Task: Query: activation; subject: CCOC(=O)CCc1c(C)c(C#N)c2[nH]c3ccccc3n2c1=O
Result: -0.2

Task: Query: activation; subject: Cc1nc2ccc(NC(=O)N3CCC(c4ccccc4)C3)cc2nc1C (stereo unspecified)
Result: -0.6

Task: Query: activation; subject: COc1ccc(S(=O)(=O)Nc2c(C)n(C)n(-c3ccccc3)c2=O)cc1
Result: -1.6

Task: Query: activation; subject: CC1CCCC(NC(=O)CN2CCN(Cc3ccc(Cl)cc3)C2=O)C1C (stereo unspecified)
Result: -0.6

Task: Query: activation; subject: N#Cc1c(/N=C/N2CCCC2)oc(-c2ccccc2)c1-c1ccccc1
Result: 0.2
